These measurements were taken from patent US20200095340A1.

Target: biotinylated human DLL3 protein expressed as a human IgG1 fusion protein (human) (UniProt Q9NYJ7)
Sequence (Q9NYJ7 other isoform, or with tags, fused parts or gaps): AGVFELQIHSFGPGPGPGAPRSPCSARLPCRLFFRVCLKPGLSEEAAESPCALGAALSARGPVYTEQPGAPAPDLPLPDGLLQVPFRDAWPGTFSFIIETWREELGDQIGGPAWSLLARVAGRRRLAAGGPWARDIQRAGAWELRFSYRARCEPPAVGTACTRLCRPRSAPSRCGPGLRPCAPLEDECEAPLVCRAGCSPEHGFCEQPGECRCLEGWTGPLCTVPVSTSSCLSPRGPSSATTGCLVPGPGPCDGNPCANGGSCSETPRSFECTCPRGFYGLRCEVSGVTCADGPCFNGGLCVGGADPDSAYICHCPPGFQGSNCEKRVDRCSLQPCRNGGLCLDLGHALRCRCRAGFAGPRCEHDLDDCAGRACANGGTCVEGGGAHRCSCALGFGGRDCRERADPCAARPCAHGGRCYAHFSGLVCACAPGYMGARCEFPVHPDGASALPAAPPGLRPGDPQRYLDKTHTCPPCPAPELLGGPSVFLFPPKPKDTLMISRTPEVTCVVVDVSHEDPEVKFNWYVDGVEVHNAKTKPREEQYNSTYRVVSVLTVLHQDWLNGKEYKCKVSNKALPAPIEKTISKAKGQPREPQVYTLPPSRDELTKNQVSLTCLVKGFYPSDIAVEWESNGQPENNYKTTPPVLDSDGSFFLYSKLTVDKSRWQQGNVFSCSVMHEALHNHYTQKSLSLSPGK
Assay: Octet BLI; biotinylated huDLL3-IgG1 fusion on streptavidin tips; single 50 nM; conditioned medium
MEASURED QUANTITY: Kd (nM)
Answers are plain numbers, in nM.

# example entries with known answers
anti-DLL3 trispecific protein 2E02 (protein, part only; not given: anti-CD3 fragment and anti-albumin sdAb, part only) chain, part: EVQLVESGGGLVQPGGSLTLSCVASGSTSAINAMGWYRRAPGKQRELVAGISSDGSKVYVDSVKGRFTISRDNAKNSVYLQMNSLRAEDTAVYYCYYFRTVSGSSQRYWGQGTLVTVSSGGGGSGGGSGGGGSGGGSHHHHHH :: 6
anti-DLL3 trispecific protein 2H06 (protein, part only; not given: anti-CD3 fragment and anti-albumin domain, part only) chain, part: EVQLVESGGGLVQPGGSLTLSCVASGSTSTINAMGWYRRAPGKQRELVAGISSDGSKVYADSVKGRFTISRDNAKNSVYLQMNSLRAEDTAVYYCYYFRTASGSSMRYWGQGTLVTVSSGGGGSGGGSGGGGSGGGSHHHHHH :: 7.9
anti-DLL3 trispecific protein 3C02 (protein, part only; not given: anti-CD3 and anti-albumin domains, part only) chain, part: EVQLVESGGGLVQPGGSLTLSCAASGSSVRFLSMAWYRQAPGKKRELVAGISADGSTIYIDSVKGRFTISRDNAKNSVYLQMNSLRAEDTAVYYCYAYRWRTRYTYWGQGTLVTVSSGGGGSGGGSGGGGSGGGSHHHHHH :: 9.1

I would be grateful if you could provide Kd for each of the following entries.
1. anti-DLL3 trispecific protein 2C08 (protein, part only; not given: anti-CD3 and anti-albumin domains, part only) chain, part: EVQLVESGGGLVQPGGSLTLSCVASGSTSRINAMGWYRRAPGKQRELVAGISSDGSKVYQDSVKGRFTISRDNAKNSVYLQMNSLRAEDTAVYYCYYFRRVSGSSMRYWGQGTLVTVSSGGGGSGGGSGGGGSGGGSHHHHHH
2. anti-DLL3 trispecific protein 4D010 (protein, part only; not given: anti-CD3 fragment and anti-albumin sdAb, part only) chain, part: EVQLVESGGGLVQPGGSLTLSCAASGSSVSFLSMAWYRQAPGKKRELVAGISADGSTDYIHSVKGRFTISRDNAKNSVYLQMNSLRAEDTAVYYCYAYRWRTRYTYWGQGTLVTVSSGGGGSGGGSGGGGSGGGSHHHHHH
3. anti-DLL3 trispecific protein 1H010 (protein, part only; not given: anti-CD3 fragment and anti-albumin sdAb, part only) chain, part: EVQLVESGGGLVQPGGSLTLSCVASGSTRSINAMGWYRRAPGKQRELVAGISSDGSKVYNDSVKGRFTISRDNAKNSVYLQMNSLRAEDTAVYYCYYFRTVSGSSMRFWGQGTLVTVSSGGGGSGGGSGGGGSGGGSHHHHHH
4. anti-DLL3 trispecific protein 4D011 (protein, part only; not given: anti-CD3 fragment and anti-albumin sdAb, part only) chain, part: EVQLVESGGGLVQPGGSLTLSCAASGSSVRFLSMAWYRQAPGKKRELVAGISVDGSTDYIDSVKGRFTISRDNAKNSVYLQMNSLRAEDTAVYYCYAYRWRTRYTYWGQGTLVTVSSGGGGSGGGSGGGGSGGGSHHHHHH
5. anti-DLL3 trispecific protein 1H011 (protein, part only; not given: anti-CD3 and anti-albumin domains, part only) chain, part: EVQLVESGGGLVQPGGSLTLSCVASGSTSSINAIGWYRRAPGKQRELVAGISSDGSKVYNDSVKGRFTISRDNAKNSVYLQMNSLRAEDTAVYYCYYFRTQSGSSMRYWGQGTLVTVSSGGGGSGGGSGGGGSGGGSHHHHHH
6. anti-DLL3 trispecific protein 4A09 (protein, part only; not given: anti-CD3 and anti-albumin domains, part only) chain, part: EVQLVESGGGLVQPGGSLTLSCAASGSSVKFLSMAWYRQAPGKKRELVAGISADGSTDYIGSVKGRFTISRDNAKNSVYLQMNSLRAEDTAVYYCYAYRWTTRVTYWGQGTLVTVSSGGGGSGGGSGGGGSGGGSHHHHHH

6.1
9.9
8.4
5.8
6.2
9

Each binder below has a reported value. Please supply its Kd.
1. anti-DLL3 trispecific protein 1E04 (protein, part only; not given: anti-CD3 fragment and anti-albumin sdAb, part only) chain, part: EVQLVESGGGLVQPGGSLTLSCVASGSTSRINGMGWYRRAPGKQRELPAGISSDGSKAYADSVKGRFTISRDNAKNSVYLQMNSLRAEDTAVYYCYYFRTASGTSMRYWGQGTLVTVSSGGGGSGGGSGGGGSGGGSHHHHHH
2. anti-DLL3 trispecific protein 4C011 (protein, part only; not given: anti-CD3 and anti-albumin domains, part only) chain, part: EVQLVESGGGLVQPGGSLTLSCAASGSRVSFLSMAWYRQAPGKKRELVAGISADGSTVYIDSVKGRFTISRDNAKNSVYLQMNSLRAEDTAVYYCYAYRWTRRYTYWGQGTLVTVSSGGGGSGGGSGGGGSGGGSHHHHHH

1: 8.1; 2: 6
